Test system: P-388
Experiment: Inhibition of cell growth by counting cells, P-388
Assay type: cell-based, mouse
Settings: Mus musculus, P388, 72 h; three days of incubation; read-out: IC50 (molar) P-388
Observation type: IC50

| Compound | Test value |
| --- | --- |
| CCCC(=O)Oc1cc2c(cc1OC)[C@@]1(CS[C@@H]3c4c(OC(C)=O)c(C)c5c(c4[C@H](COC1=O)N1C3[C@H]3c4c(cc(C)c(OC)c4O)C[C@@H]([C@@H]1O)N3C)OCO5)NCC2 (stereo partly drawn) | 0.12 nM |
| COc1cc2c(cc1OC(C)=O)CCN[C@]21CS[C@@H]2c3c(OC(C)=O)c(C)c4c(c3[C@H](COC1=O)N1C2[C@H]2c3c(cc(C)c(OC)c3O)C[C@@H]([C@@H]1C#N)N2C)OCO4 (stereo partly drawn) | 0.148 nM |
| COc1cc2c(cc1OC(=O)OC(C)(C)C)CCN[C@]21CS[C@@H]2c3c(OC(C)=O)c(C)c4c(c3[C@H](COC1=O)N1C2[C@H]2c3c(cc(C)c(OC)c3O)C[C@@H]([C@@H]1C#N)N2C)OCO4 (stereo partly drawn) | 0.115 nM |

----------
Reported LOVO-DOX TGI values follow for various molecules
System: LoVo-Dox
Assay: Inhibition of cells growth by colorimetric assay (SRB), LoVo-Dox
Type: cell-based
Settings: SRB assay, 48 hours exposure
Observation type: LOVO-DOX TGI

| Molecule | Target desc | Observation type | Test value |
| --- | --- | --- | --- |
| COc1cc2c(cc1O)CCN[C@]21CS[C@@H]2c3c(OC(=O)CCCCC4SCC5NC(=O)NC54)c(C)c4c(c3[C@H](COC1=O)N1C2[C@H]2c3c(cc(C)c(OC)c3OC(=O)CCCCC3SCC5NC(=O)NC53)C[C@@H]([C@@H]1O)N2C)OCO4 (stereo partly drawn) | LoVo-Dox | LOVO-DOX TGI | 7.23E-06 |
| COc1cc2c(cc1O)CCN[C@]21CS[C@@H]2c3c(OC(=O)C(F)(F)C(F)(F)C(F)(F)F)c(C)c4c(c3[C@H](COC1=O)N1C2[C@H]2c3c(cc(C)c(OC)c3O)C[C@@H]([C@@H]1O)N2C)OCO4 (stereo partly drawn) | LoVo-Dox | LOVO-DOX TGI | 1.58E-06 |
| C=COC(=O)Oc1c(C)c2c(c3c1[C@H]1SC[C@]4(NCCc5cc(OC(=O)OC(C)(C)C)c(OC)cc54)C(=O)OC[C@@H]3N3C1[C@H]1c4c(cc(C)c(OC)c4O)C[C@@H]([C@@H]3O)N1C)OCO2 (stereo partly drawn) | LoVo-Dox | LOVO-DOX TGI | 1.15E-06 |
| COc1cc2c(cc1OC(=O)OC(C)(C)C)CCN[C@]21CS[C@@H]2c3c(OC(=O)[C@H](C)NC(=O)OC(C)(C)C)c(C)c4c(c3[C@H](COC1=O)N1C2[C@H]2c3c(cc(C)c(OC)c3O)C[C@@H]([C@@H]1O)N2C)OCO4 (stereo partly drawn) | LoVo-Dox | LOVO-DOX TGI | 1.55E-07 |
| COc1cc2c(cc1O)CCN[C@]21CS[C@@H]2c3c(OC(=O)CCCCC4SCC5NC(=O)NC54)c(C)c4c(c3[C@H](COC1=O)N1C2[C@H]2c3c(cc(C)c(OC)c3O)C[C@@H]([C@@H]1O)N2C)OCO4 (stereo partly drawn) | LoVo-Dox | LOVO-DOX TGI | 1.23E-06 |
| COc1cc2c(cc1O)CCN[C@]21CS[C@@H]2c3c(O)c(C)c4c(c3[C@H](COC1=O)N1C2[C@H]2c3c(cc(C)c(OC)c3O)C[C@@H]([C@@H]1O)N2C)OCO4 (stereo partly drawn) | LoVo-Dox | LOVO-DOX TGI | 5.46E-07 |

----------
System: IGROV-1
Test: Inhibition of cells growth by colorimetric assay (SRB), IGROV-1
Assay type: cell-based
Conditions: Homo sapiens, IGROV-1, 48 h, read-out: LC50 IGROV, IGROV; SRB, 48 hours exposure
Reported CC50 values follow for various molecules

| Molecule | Target desc | CC50, nM |
| --- | --- | --- |
| COc1cc2c(cc1O)CCN[C@]21CS[C@@H]2c3c(OC(C)=O)c(C)c4c(c3[C@H](COC1=O)N1C2[C@H]2c3c(cc(C)c(OC)c3OC(C)C)C[C@@H]([C@@H]1C#N)N2C)OCO4 (stereo partly shown) [Compound 48] | IGROV-1 | 7980 |
| COc1cc2c(cc1OC(=O)c1cc3ccccc3oc1=O)CCN[C@]21CS[C@@H]2c3c(OC(C)=O)c(C)c4c(c3[C@H](COC1=O)N1C2[C@H]2c3c(cc(C)c(OC)c3O)C[C@@H]([C@@H]1O)N2C)OCO4 (stereo partly shown) [Compound 76] | IGROV-1 | 1.66 |
| COc1cc2c(cc1OC)[C@@]1(CS[C@@H]3c4c(OC(C)=O)c(C)c5c(c4[C@H](COC1=O)N1C3[C@H]3c4c(cc(C)c(OC)c4O)C[C@@H]([C@@H]1O)N3C)OCO5)NCC2 (stereo partly shown) [Compound 67] | IGROV-1 | 1.21 |
| COc1cc2c(cc1OC(=O)C(F)(F)C(F)(F)C(F)(F)F)CCN[C@]21CS[C@@H]2c3c(OC(C)=O)c(C)c4c(c3[C@H](COC1=O)N1C2[C@H]2c3c(cc(C)c(OC)c3O)C[C@@H]([C@@H]1O)N2C)OCO4 (stereo partly shown) [Compound 74] | IGROV-1 | 0.911 |

----------
System: IGROV-ET
Assay: Inhibition of cells growth by colorimetric assay (SRB), IGROV-ET
Type: cell-based
Conditions: Homo sapiens, 48 h, SRB assay, 48 hours exposure; read-out: IGROV-ET GI50
Description: 2°.—Inhibition of Cells Growth by Colorimetric Assay. A colorimetric type of assay, using sulforhodamine B (SRB) reaction has been adapted for a quantitative measurement of cell growth and viability [following the technique described by Philip Skehan, et al. (1990), New colorimetric cytotoxicity assay for anticancer drug screening, J. Natl. Cancer Inst., 82:1107-1112] […] The values for mean+/−SD of data from triplicate wells are calculated. […]

| Compound | GI50 |
| --- | --- |
| COc1cc2c(cc1O)CCN[C@]21CS[C@@H]2c3c(OC(=O)CCCCC4SCC5NC(=O)NC54)c(C)c4c(c3[C@H](COC1=O)N1C2[C@H]2c3c(cc(C)c(OC)c3OC(=O)CCCCC3SCC5NC(=O)NC53)C[C@@H]([C@@H]1O)N2C)OCO4 (some centres unmarked) [Compound 172] | 165 nM |
| COc1cc2c(cc1O)CCN[C@]21CS[C@@H]2c3c(O)c(C)c4c(c3[C@H](COC1=O)N1C2[C@H]2c3c(cc(C)c(OC)c3O)C[C@@H]([C@@H]1O)N2C)OCO4 (some centres unmarked) [Et-701] | 16.4 nM |
| COc1cc2c(cc1OC(=O)OC(C)(C)C)CCN[C@]21CS[C@@H]2c3c(OC(=O)[C@H](C)NC(=O)OC(C)(C)C)c(C)c4c(c3[C@H](COC1=O)N1C2[C@H]2c3c(cc(C)c(OC)c3O)C[C@@H]([C@@H]1O)N2C)OCO4 (some centres unmarked) [Compound 175] | 3.97 nM |
| C=COC(=O)Oc1c(C)c2c(c3c1[C@H]1SC[C@]4(NCCc5cc(OC(=O)OC(C)(C)C)c(OC)cc54)C(=O)OC[C@@H]3N3C1[C@H]1c4c(cc(C)c(OC)c4O)C[C@@H]([C@@H]3O)N1C)OCO2 (some centres unmarked) [Compound 176] | 4.88 nM |
| COc1cc2c(cc1O)CCN[C@]21CS[C@@H]2c3c(OC(=O)CCCCC4SCC5NC(=O)NC54)c(C)c4c(c3[C@H](COC1=O)N1C2[C@H]2c3c(cc(C)c(OC)c3O)C[C@@H]([C@@H]1O)N2C)OCO4 (some centres unmarked) [Compound 171] | 225 nM |

----------
Tested on: IGROV-ET
Test: Inhibition of cells growth by colorimetric assay (SRB), IGROV-ET
Assay type: cell-based
Settings: IGROV-ET; SRB, 48 hours exposure; read-out: LC50 IGROV-ET

| Compound | Target desc | CC50 (nM) |
| --- | --- | --- |
| C=COC(=O)Oc1cc2c(cc1OC)[C@@]1(CS[C@@H]3c4c(OC(C)=O)c(C)c5c(c4[C@H](COC1=O)N1C3[C@H]3c4c(cc(C)c(OC)c4O)C[C@@H]([C@@H]1O)N3C)OCO5)NCC2 (stereo partly shown) | IGROV-ET | 12 |

----------
Reported CC50 values follow for various compounds
System: SK-BR-3
Experiment: Inhibition of cells growth by colorimetric assay (SRB), SK-BR-3
Type: cell-based
Details: Homo sapiens, SK-BR-3, 48 h, read-out: SK-BR3 LC50, SK-BR3; SRB, 48 hours exposure
Description: 2°.—Inhibition of Cells Growth by Colorimetric Assay. A colorimetric type of assay, using sulforhodamine B (SRB) reaction has been adapted for a quantitative measurement of cell growth and viability [following the technique described by Philip Skehan, et al. (1990), New colorimetric cytotoxicity assay for anticancer drug screening, J. Natl. Cancer Inst., 82:1107-1112] […] The values for mean+/−SD of data from triplicate wells are calculated. […]

| Compound | Target desc | CC50 |
| --- | --- | --- |
| COC1=C(C)C(=O)C2=C(C1=O)[C@@H]1C3[C@@H]4SC[C@]5(NCCc6cc(O)c(OC)cc65)C(=O)OC[C@@H](c5c6c(c(C)c(OC(C)=O)c54)OCO6)N3[C@@H](O)[C@H](C2)N1C (some centres unmarked) [Compound 101] | SK-BR-3 | 46.8 nM |
| COc1cc2c(cc1OC)[C@@]1(CS[C@@H]3c4c(OC(C)=O)c(C)c5c(c4[C@H](COC1=O)N1C3[C@H]3c4c(cc(C)c(OC)c4OC)C[C@@H]([C@@H]1O)N3C)OCO5)NCC2 (some centres unmarked) [Compound 87] | SK-BR-3 | 101 nM |
| COc1cc2c(cc1O)CCN(C)[C@]21CS[C@@H]2c3c(OC(C)=O)c(C)c4c(c3[C@H](COC1=O)N1C2[C@H]2c3c(cc(C)c(OC)c3O)C[C@@H]([C@@H]1O)N2C)OCO4 (some centres unmarked) [Compound 93] | SK-BR-3 | 9.5 nM |
| C=COC(=O)N1CCc2cc(O)c(OC)cc2[C@@]12CS[C@@H]1c3c(OC(C)=O)c(C)c4c(c3[C@H](COC2=O)N2C1[C@H]1c3c(cc(C)c(OC)c3O)C[C@@H]([C@@H]2O)N1C)OCO4 (some centres unmarked) [Compound 95] | SK-BR-3 | 522 nM |
| C=COC(=O)Oc1cc2c(cc1OC)[C@@]1(CS[C@@H]3c4c(OC(C)=O)c(C)c5c(c4[C@H](COC1=O)N1C3[C@H]3c4c(cc(C)c(OC)c4O)C[C@@H]([C@@H]1O)N3C)OCO5)N(C(=O)OC=C)CC2 (some centres unmarked) [Compound 100] | SK-BR-3 | 1720 nM |

FYI, the data here is from patent US7759345B2.
